# Experiment summary: Human HepG2 cell viability assay in 384 well format
# Assay type: toxicity, cell-based
# Design: dose 125 nL, time 70.5 hour; concentration not given beside the values
# Condition details: HepG2 cells, read-out: Inhibition
Test readout: cytotoxicity at 70.5 h (%)

INSERT INTO results (molecule, recorded_result) VALUES
  ('Cc1ccc(NC2CCN(C(=O)c3cccnc3N(C)C)CC2)nn1', 0.412),
  ('CCNc1cc2c(nn1)CCN(C(=O)CC1CCCCC1)C2', -4.16),
  ('C[C@@H](NC(=O)c1cccn1C)c1c(-c2ccc(Cl)cc2)noc1C(=O)O', -7.66),
  ('Cc1ccc(N2CCCC(NCc3cscn3)C2)nn1 (configuration not stated)', -11.8),
  ('CSc1ccc(NCc2csc(C)n2)cc1F', -0.888),
  ('COc1ccc(OC)c(Sc2ncccc2C(=O)NCC2CC2)c1', 24.9),
  ('CCc1cc(N2CCSCC2)n2nc(C)c(C)c2n1', 12.2),
  ('O=c1c2ccccc2cnn1Cc1cncn1C1CC1', -6.14),
  ('CCC(Nc1nccc(C2CCCC2)n1)c1ncccc1C (configuration not stated)', 14.1),
  ('Cc1cc(C)c(S(=O)(=O)Nc2c(C)nc(N(C)C)nc2C)cc1C', 7.13),
  ('Cc1ncccc1NC(=O)c1nc2c(n1C)CCN(C(=O)C1CC1)C2', -8.28),
  ('CCc1nnc2n1CCN(C(=O)Cc1csc(-c3ccco3)n1)C2', -15.6),
  ('COCC(=O)N1CCC(C(=O)N(C)C(C)c2ccon2)CC1 (configuration not stated)', -2.4),
  ('O=C1COc2ccc(C(=O)NS(=O)(=O)c3cc(F)ccc3F)cc2N1', -8.54),
  ('Cc1ccc(-c2ncc(C(=O)N3CCCC(CCN)C3)c(O)n2)cc1 (configuration not stated)', -7.81),
  ('CN(C)Cc1nn(C)c2c1CCN(C(=O)c1cnccn1)C2', 17.9),
  ('COCCN1C(=O)CO[C@H]2CN(Cc3cccc(OC)c3F)C[C@@H]21', -4.24),
  ('CC(C)(CNc1ccc(S(=O)(=O)C(F)F)cc1)N1CCOCC1', 18.8),
  ('Cc1cc(=O)n(CC(=O)NCC2CCCO2)c(-c2cccc(Cl)c2)n1 (configuration not stated)', -2.89),
  ('CN1CC(c2cc(O)nc(NCc3cccc(F)c3)n2)CC1=O (configuration not stated)', -10.4),
  ('CCc1noc(Cn2c(=O)c3c(C(F)(F)F)cc(C)nc3n2C)n1', 19.2),
  ('COc1cccc(OCC2CCCN(C3CCN(C(C)=O)CC3)C2)c1 (configuration not stated)', -4.72),
  ('COc1cc2c(c(OC)c1OC)CCN(CCn1cncn1)CC2', -8.44),
  ('CC(C)(C)c1cc(C(=O)N2CCOC(c3cnccn3)C2)[nH]n1 (configuration not stated)', 0.63),
  ('c1cnn(CCNCc2cnc(N3CCOCC3)nc2)c1', 41.2),
  ('CCC1CN(C(=O)c2ccc(=O)[nH]n2)CCC(=O)N1Cc1ccccc1 (configuration not stated)', 1.68),
  ('O=C(O)C1(Cc2ccccc2Cl)CCN(c2ncccn2)CC1', -10.5),
  ('COCCNC(=O)[C@@]12CCO[C@@H]1CCN(Cc1ccncc1)C2', -10.2),
  ('COc1ccc2c(c1)C(C(=O)N(C)CCCc1nccn1C)CC(=O)N2 (configuration not stated)', 5.74),
  ('O=C(Nc1cc(Cl)ccc1N1CCCCC1)c1ccccn1', 7.77),
  ('NC(=O)C1CCN(CCc2ccc(NCc3cscn3)cc2)CC1', -12.5),
  ('COCCCn1ccc(NC(=O)NCc2cccc(N(C)C)c2)n1', -5.16),
  ('Cc1nc(-c2cc(Cl)cc3c2OC(CN)C3)c[nH]1 (configuration not stated)', 11.1),
  ('O=C(NCCOc1ccc2c(c1)OCO2)C1CC(=O)N(CC2CC2)C1 (configuration not stated)', 1.74),
  ('Cc1nnc(NC(=O)NCc2ccc(N3CCN(C)CC3)nc2)s1', -24.8),
  ('CCOc1ccc2cc(C(=O)N3CCn4c(CC)nnc4C3)[nH]c2c1', -8.2),
  ('O=C(c1cc2ccccc2[nH]c1=O)N1CCC2(CCCNC2)C1 (configuration not stated)', -4.47),
  ('Cc1nc2ccccn2c1CC(=O)N[C@@H]1CC[C@@H](N2CCOCC2)[C@@H]1O', -1.29),
  ('CCCc1nc(C)cc(N2Cc3cnn(CCO)c3C2)n1', 0.818),
  ('O=C(CN1CCOC(Cn2cccn2)C1)NC1CCN(C2CC2)CC1 (configuration not stated)', -6.52),
  ('OCC1CCCCN1c1ccc(-c2nc(-c3ccccc3F)no2)cn1 (configuration not stated)', -24.7),
  ('COc1ccnc(N2CCC(=O)N(CC3CC3)C(C(C)C)C2)n1 (configuration not stated)', 32.2),
  ('CCN(C)C(=O)c1cc(-c2ccn(C(C)C)n2)n2ccccc12', -3.51),
  ('CN(CCC(F)(F)F)C(=O)C1CSCN1C(=O)C(C)(C)C (configuration not stated)', 100),
  ('Cc1nc(-c2cnn(C)c2)nc2c1CN(C(=O)c1ccc[nH]1)CC2', -6.12),
  ('CN(Cc1cnn(C)c1)C(=O)NC1CCN(c2ncccn2)CC1', 12.2),
  ('CNC(=O)c1ccc2c(c1)C1(CCN(CC3CC3)CC1)C(=O)N2', 1.88);
